target: UniProt Q9UM73; assay: radiometric filter-binding kinase assay, Kinase HotSpot; conditions: compound 0.5 µM; ATP 10 µM
Sequence (Q9UM73 whole entry, looked up): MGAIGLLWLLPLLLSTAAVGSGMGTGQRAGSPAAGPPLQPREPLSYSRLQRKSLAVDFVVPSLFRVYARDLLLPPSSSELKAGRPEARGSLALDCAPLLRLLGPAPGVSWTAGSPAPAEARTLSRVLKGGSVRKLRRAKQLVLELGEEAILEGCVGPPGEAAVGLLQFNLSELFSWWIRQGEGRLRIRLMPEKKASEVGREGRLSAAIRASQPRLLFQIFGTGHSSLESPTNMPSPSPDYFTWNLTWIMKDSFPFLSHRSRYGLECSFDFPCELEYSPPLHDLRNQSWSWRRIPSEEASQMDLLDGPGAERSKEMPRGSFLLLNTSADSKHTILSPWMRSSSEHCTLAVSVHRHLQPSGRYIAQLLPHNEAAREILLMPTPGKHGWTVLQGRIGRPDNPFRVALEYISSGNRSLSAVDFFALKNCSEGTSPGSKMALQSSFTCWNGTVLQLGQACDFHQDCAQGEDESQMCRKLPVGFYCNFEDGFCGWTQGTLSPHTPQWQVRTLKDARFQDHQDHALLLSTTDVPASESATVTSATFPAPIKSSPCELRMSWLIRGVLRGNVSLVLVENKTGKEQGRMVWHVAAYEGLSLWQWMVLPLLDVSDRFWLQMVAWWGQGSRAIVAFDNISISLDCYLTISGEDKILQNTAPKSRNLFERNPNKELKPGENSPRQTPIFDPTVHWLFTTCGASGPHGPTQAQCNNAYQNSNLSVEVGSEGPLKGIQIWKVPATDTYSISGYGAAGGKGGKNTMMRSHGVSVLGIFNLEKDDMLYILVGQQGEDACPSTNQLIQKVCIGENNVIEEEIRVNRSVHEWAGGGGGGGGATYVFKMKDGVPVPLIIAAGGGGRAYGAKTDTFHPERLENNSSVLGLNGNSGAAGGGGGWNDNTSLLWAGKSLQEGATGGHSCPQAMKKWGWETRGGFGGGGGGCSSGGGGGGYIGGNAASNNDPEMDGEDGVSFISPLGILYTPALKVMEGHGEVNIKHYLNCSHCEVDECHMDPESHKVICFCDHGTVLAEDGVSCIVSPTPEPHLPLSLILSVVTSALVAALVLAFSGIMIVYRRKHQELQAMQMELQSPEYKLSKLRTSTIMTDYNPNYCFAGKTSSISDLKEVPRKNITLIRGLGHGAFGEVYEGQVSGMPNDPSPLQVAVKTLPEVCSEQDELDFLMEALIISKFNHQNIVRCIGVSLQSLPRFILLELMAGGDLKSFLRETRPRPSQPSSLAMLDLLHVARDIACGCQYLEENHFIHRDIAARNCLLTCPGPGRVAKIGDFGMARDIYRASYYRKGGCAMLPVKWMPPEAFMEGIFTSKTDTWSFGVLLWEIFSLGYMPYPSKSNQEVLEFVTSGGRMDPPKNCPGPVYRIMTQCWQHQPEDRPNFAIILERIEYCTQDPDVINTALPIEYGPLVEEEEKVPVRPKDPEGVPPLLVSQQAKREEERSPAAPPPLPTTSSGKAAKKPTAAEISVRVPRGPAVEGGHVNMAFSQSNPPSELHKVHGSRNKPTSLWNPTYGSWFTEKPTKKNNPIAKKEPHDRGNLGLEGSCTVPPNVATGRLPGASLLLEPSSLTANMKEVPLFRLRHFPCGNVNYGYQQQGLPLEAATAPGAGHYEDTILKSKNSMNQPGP
Each entry below carries its recorded residual activity.
// return numeric value only (unit: %, not printed)

Record excerpt, results attached:
{"smiles_entry": "COc1ccc(Cl)cc1NC(=O)Nc1cc(C)nc2ccccc12", "study_target": "UniProt Q9UM73", "residual activity [%]": 99.2}
{"smiles_entry": "CO[C@@H]1[C@H](N(C)C(=O)c2ccccc2)C[C@H]2O[C@]1(C)n1c3ccccc3c3c4c(c5c6ccccc6n2c5c31)C(=O)NC4", "study_target": "UniProt Q9UM73", "residual activity [%]": 49.2}
{"smiles_entry": "CN(C)c1ccc(/C=C2\\C(=O)Nc3ccccc32)cc1", "study_target": "UniProt Q9UM73", "residual activity [%]": 99.7}
{"smiles_entry": "NC(=O)c1cccc(-c2cc(Nc3ccc(OC(F)(F)F)cc3)ncn2)c1", "study_target": "UniProt Q9UM73", "residual activity [%]": 103}
{"smiles_entry": "CN(C)CCCn1cc(C2=C(c3c[nH]c4ccccc34)C(=O)NC2=O)c2ccccc21", "study_target": "UniProt Q9UM73", "residual activity [%]": 87}
{"smiles_entry": "O=C(c1cc2cc(O)ccc2[nH]1)c1cc2cc(O)ccc2[nH]1", "study_target": "UniProt Q9UM73", "residual activity [%]": 97}
{"smiles_entry": "Fc1ccc(-c2nc3n(c2-c2ccncc2)CCS3)cc1", "study_target": "UniProt Q9UM73", "residual activity [%]": 124}
{"smiles_entry": "N#C/C(=C\\c1ccc(O)c(O)c1)C(=O)NCc1ccccc1", "study_target": "UniProt Q9UM73", "residual activity [%]": 105}

Task item: What value of measured residual activity is listed for "O=C1Nc2ccc(Br)cc2/C1=C\c1cc2c([nH]1)CCCC2" ?
Reply: 88.5

Task item: What value of measured residual activity is listed for "Ic1cccc(CSc2nnc(-c3ccncc3)o2)c1" ?
Reply: 101

Task item: What value of measured residual activity is listed for "O=C1c2ccccc2-c2nc3nnnn3nc21" ?
Reply: 83.5

Task item: What value of measured residual activity is listed for "COc1cc2ncnc(Nc3ccc(Oc4ccccc4)cc3)c2cc1OC" ?
Reply: 109

Task item: What value of measured residual activity is listed for "Cc1cncc2cccc(S(=O)(=O)N3CCCN(C(=O)CN)C[C@H]3C)c12" ?
Reply: 113

Task item: What value of measured residual activity is listed for "O=C1C(Cl)=C(N2C(=O)CCC2=O)C(=O)c2ccccc21" ?
Reply: 88.5

Task item: What value of measured residual activity is listed for "O=C1NC(=O)c2c1c1c3ccccc3[nH]c1n1cncc21" ?
Reply: 84.6

Task item: What value of measured residual activity is listed for "COc1ccc(C(=O)Nc2sc3c(c2C(N)=O)CCCC3)cc1OC" ?
Reply: 66.2

Task item: What value of measured residual activity is listed for "COc1cc2ncnc(Nc3ccc(OCc4ccccc4)cc3)c2cc1OC" ?
Reply: 103

Task item: What value of measured residual activity is listed for "Cc1cccc(-c2nc(C(C)(C)C)[nH]c2-c2ccc3c(c2)OCO3)n1" ?
Reply: 103

Task item: What value of measured residual activity is listed for "CC(C)(C)c1cc(C=C(C#N)C#N)cc(Br)c1O" ?
Reply: 97.9

Task item: What value of measured residual activity is listed for "C[C@@H]1CCN(C(=O)CC#N)C[C@@H]1N(C)c1ncnc2[nH]ccc12" ?
Reply: 107

Task item: What value of measured residual activity is listed for "N#Cc1c[nH]c2c[nH]/c(=N\Cc3cccnc3)cc2/c1=N\c1ccc(F)c(Cl)c1" ?
Reply: 107

Task item: What value of measured residual activity is listed for "COc1ccc2c(c1)c(C1=C(c3c[nH]c4ccccc34)C(=O)NC1=O)cn2CCCN(C)C" ?
Reply: 96
